For each of the binders below, state its IC50 (pM), ISRE assay.
Target desc: IFN-αWA (human, UniProt P05015 24-189)
Test description: cell-based or functional assay
One number for each entry, in pM.

Binder: IFWM3328 (antibody, IgG1, V domains shown) VH: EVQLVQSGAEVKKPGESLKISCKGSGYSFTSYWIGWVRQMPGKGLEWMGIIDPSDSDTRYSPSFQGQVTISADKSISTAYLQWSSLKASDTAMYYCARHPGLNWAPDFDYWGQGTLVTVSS VL: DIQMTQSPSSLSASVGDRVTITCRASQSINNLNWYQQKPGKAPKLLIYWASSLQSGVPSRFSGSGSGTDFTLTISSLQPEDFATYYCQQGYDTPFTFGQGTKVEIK
Endpoint unit: pM
IC50 (pM), ISRE assay: 3080

Okay, next one:
IC50 (pM), ISRE assay lookup needed for IFWM3400 (antibody, IgG1, V domains shown) VH: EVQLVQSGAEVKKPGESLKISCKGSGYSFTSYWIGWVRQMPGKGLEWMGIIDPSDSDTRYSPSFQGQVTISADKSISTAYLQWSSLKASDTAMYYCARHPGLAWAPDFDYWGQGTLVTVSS VL: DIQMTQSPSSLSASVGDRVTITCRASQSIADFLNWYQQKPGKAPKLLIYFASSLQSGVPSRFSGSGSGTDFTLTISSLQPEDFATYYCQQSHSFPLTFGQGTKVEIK , thanks.
376
